- assayed.system: Cellular tumor antigen p53 (Homo sapiens) (UniProt P04637)
- Sequence (P04637 whole entry, looked up): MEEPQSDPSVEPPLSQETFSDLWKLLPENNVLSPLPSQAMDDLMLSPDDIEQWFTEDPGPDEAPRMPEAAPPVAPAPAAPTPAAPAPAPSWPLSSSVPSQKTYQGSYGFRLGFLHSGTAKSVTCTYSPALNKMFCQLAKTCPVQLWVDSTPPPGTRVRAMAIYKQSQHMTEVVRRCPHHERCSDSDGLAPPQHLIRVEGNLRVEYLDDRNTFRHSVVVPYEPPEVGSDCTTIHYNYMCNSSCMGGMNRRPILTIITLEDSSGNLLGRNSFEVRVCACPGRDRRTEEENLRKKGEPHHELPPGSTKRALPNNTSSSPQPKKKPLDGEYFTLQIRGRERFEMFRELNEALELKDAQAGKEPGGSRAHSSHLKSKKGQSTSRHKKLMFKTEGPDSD
- protocol.description: Primary qHTS for small molecule compounds that upregulate eGFP-tagged delta133p53alpha (in N-terminal) cells. (AID 2060322);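 also: cells pre-induced with doxycycline then dosed without doxycycline; series mostly up to about 56 µM; 0% = DMSO vehicle and 100% = reference activator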
- condition.label: NCI-H358 eGFP-delta133p53alpha fluorescence, 24 h; stronger effect = higher value
Records with an inconclusive call do not appear.
parameter.measured: activation (%)
Value expressed in %; do not type the unit.

Recorded results for 5 compounds are shown here.
{"columns": ["compound", "assayed.system", "scale.unit", "activation"],
 "data": [
  ["Cc1c(C2=CCN(C(=O)N(C)C(C)C)CC2)nnn1-c1cccnc1F", "Cellular tumor antigen p53 (Homo sapiens) (UniProt P04637)", "%", -9.55],
  ["COC(=O)[C@H](CC1C=NC=N1)NCC12CC3CC(CC(C3)C1)C2 (stereo partly drawn)", "Cellular tumor antigen p53 (Homo sapiens) (UniProt P04637)", "%", -8.11],
  ["Nc1c2c(nc3c1CCC3)CCCC2", "Cellular tumor antigen p53 (Homo sapiens) (UniProt P04637)", "%", -11.7],
  ["COc1cc(CC2COC(c3ccc(OC4OC(CO)C(O)C(O)C4O)c(OC)c3)C2CO)ccc1O (stereo not drawn)", "Cellular tumor antigen p53 (Homo sapiens) (UniProt P04637)", "%", -20.6],
  ["N[C@@H](CCCC(=O)O)C(=O)O", "Cellular tumor antigen p53 (Homo sapiens) (UniProt P04637)", "%", -8.81]
]}

Give me measured activation, please, for this compound: CC1c2ccccc2CN1NC(=O)c1ccc(Cl)c(S(N)(=O)=O)c1 (stereo not drawn)
6.69

Give me measured activation, please, for this compound: C/C(=C\CCC1(C)C2CCC(C2)C1(C)O)C(=O)O (stereo not drawn)
-13.7

Give me measured activation, please, for this compound: O=C(O)c1ccc(OC2OC(CO)C(O)C(O)C2O)cc1 (stereo not drawn)
-11.6

Give me measured activation, please, for this compound: CC(C)S(=O)(=O)N[C@H]1CCOC[C@@H]1c1ccc(-c2ccc(C#N)s2)cc1
-15

Give me measured activation, please, for this compound: CC(C)=CCCC1(C)Oc2cc3c(c4c2C2C(O4)C(C)(O)CCC21)CN(C(CCC(=O)O)C(=O)O)C3=O (stereo not drawn)
-3.05

Give me measured activation, please, for this compound: O=C1CCC=CC1(O)C(=O)OCc1ccccc1O[C@@H]1O[C@H](CO)[C@@H](O)[C@H](O)[C@H]1O (stereo partly drawn)
15.3
